Assignment: determine reported Emax for the given molecules.
target: M1 muscarinic receptor (Homo sapiens, UniProt P11229); construct: expressed in transfected cells; host or cells: CHO (M1-CHO); test: Functional mobilization of intracellular calcium (FLIPR) in M1-CHO cells; assay type: cell-based; conditions: Table 4; 100% efficacy is the maximum response obtained with the Carbachol control
Sequence (P11229 whole entry): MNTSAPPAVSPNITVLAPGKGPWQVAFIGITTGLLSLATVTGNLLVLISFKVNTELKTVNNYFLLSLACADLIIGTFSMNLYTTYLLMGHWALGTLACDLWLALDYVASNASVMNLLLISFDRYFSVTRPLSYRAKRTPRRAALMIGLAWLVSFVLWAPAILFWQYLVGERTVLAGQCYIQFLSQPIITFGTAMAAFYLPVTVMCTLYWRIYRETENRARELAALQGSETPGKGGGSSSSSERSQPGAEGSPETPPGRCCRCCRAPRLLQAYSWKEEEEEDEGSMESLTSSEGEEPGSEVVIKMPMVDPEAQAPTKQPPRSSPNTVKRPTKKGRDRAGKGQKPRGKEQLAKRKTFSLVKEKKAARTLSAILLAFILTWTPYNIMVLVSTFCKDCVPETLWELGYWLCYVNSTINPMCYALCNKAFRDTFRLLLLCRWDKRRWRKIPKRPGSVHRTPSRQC

Query: Item `CCOC(=O)N1CCC(N2CCC3(CC2)CN(C(C)=O)c2c(-c4ccccc4OC)cccc23)CC1` has what recorded Emax?
Reply: < 25%

Query: Item CC(=O)N1CC2(CCN(C3CC4CCC(C3)N4C(=O)OC(C)C)CC2)c2ccccc21 (stereo not drawn) has what recorded Emax?
Reply: 25 to 100%

Query: Item `O=C1CCCN1[C@H]1CCC2(CCN([C@@H]3CC4CC[C@H]3C4)CC2)c2ccccc21` has what recorded Emax?
Reply: 25 to 100%

Query: Item `CC(=O)N[C@H]1CC2(CCN(C3CC(C)(C)CC(C)(C)C3)CC2)c2ccccc21` has what recorded Emax?
Reply: < 25%

Query: Item `COc1cc2c(cc1OC)C1(CCN(CC3CCCCC3)CC1)C[C@@H]2NC(C)=O` has what recorded Emax?
Reply: < 25%

Query: Item `CN(C)C(=O)N1CC2(CCN(C3CCN(C(=O)OCC4CC4)CC3)CC2)c2cc(F)ccc21` has what recorded Emax?
Reply: 25 to 100%

Query: Item `CC(=O)N[C@H]1CC2(CCN(CC(=O)N3CC=CC3)CC2)c2ccccc21` has what recorded Emax?
Reply: < 25%

Query: Item `C#CCCOC(=O)N1CCC(N2CCC3(CC2)CN(CCOC)c2ccc(F)cc23)CC1` has what recorded Emax?
Reply: 25 to 100%

Query: Item CC#CC(C)OC(=O)N1CC[C@H](CN2CCC3(CC2)CN(C(=O)N(C)C)c2ccc(F)cc23)C1 (stereo partly drawn) has what recorded Emax?
Reply: 25 to 100%

Query: Item `C[C@H](O)CC(=O)N1CCC(N2CCC3(CC2)CN(C(=O)N(C)C)c2ccc(F)cc23)CC1` has what recorded Emax?
Reply: 25 to 100%

Query: Item `O=C(N[C@H]1CC2(CCN(CC3CCCCC3)CC2)c2ccccc21)C1CC1` has what recorded Emax?
Reply: 25 to 100%

Query: Item `CCOC(=O)N1CCC(N2CCC3(CC2)C[C@H](NC(C)=O)c2cc(OC)c(OC)cc23)CC1` has what recorded Emax?
Reply: 25 to 100%

Query: Item `COCCOC(=O)N1CC[C@H](CN2CCC3(CC2)CN(C(C)=O)c2ccccc23)C1` has what recorded Emax?
Reply: 25 to 100%

Query: Item `CCCOC(=O)N1CCC(N2CCC3(CC2)CN(C(C)=O)c2ccccc23)CC1` has what recorded Emax?
Reply: 25 to 100%

Query: Item `CC(C)C(=O)N[C@@H]1CC2(CCN(C[C@H]3C[C@H]4CC[C@H]3C4)CC2)c2ccccc21` has what recorded Emax?
Reply: < 25%

Query: Item CC(=O)N[C@H]1CC2(CCN(C3CCCCC3)C2)c2ccc(F)cc21 (stereo partly drawn) has what recorded Emax?
Reply: 25 to 100%

Query: Item `C#CCCOC(=O)N1CC[C@H](CN2CCC3(CC2)CN(C(C)=O)c2ccccc23)C1` has what recorded Emax?
Reply: < 25%

Query: Item CCOC(=O)N1CC2(CCN(C3CC4CCC3C4)CC2)c2cc(C)ccc21 (stereo not drawn) has what recorded Emax?
Reply: 25 to 100%

Query: Item `CC(=O)N1CC2(CCN(C3CCN(c4cnccn4)CC3)CC2)c2ccccc21` has what recorded Emax?
Reply: 25 to 100%

Query: Item `CCC#CCOC(=O)N1CC[C@H](CN2CCC3(CC2)CN(C(C)=O)c2cccc(C)c23)C1` has what recorded Emax?
Reply: 25 to 100%

Query: Item Cc1nsc(N2CC3(CCN(C4CC5CCC(C4)N5c4nc(C)ns4)CC3)c3ccccc32)n1 (stereo not drawn) has what recorded Emax?
Reply: 25 to 100%
